System: NIH/3T3 fibroblast cells
Assay: MTT assay on non-malignant fibroblasts (selectivity)
Format: cell-based, murine
Conditions: Mus musculus, NIH3T3; NIH/3T3, 30 μM, 72 h; read-out: Growth inhibition (%) ± SEM
Description: The in vitro anticancer effects of the presented compounds were assessed using the standard MTT [3-(4,5-dimethylthiazol2-yl)-2,5-diphenyltetrazolium bromide] assay on the following human cancer cell lines: cervical (HeLa and SiHa), breast (MCF-7 and MDA-MB-231) and ovarian cancer (A2780). The selectivity of the tested compounds was determined on murine embryonal fibroblast cells (NIH/3T3). […] The IC50 values were calculated using sigmoid curve fitting. […]
# key: entry, value: inhibition at 30 µM
Quick note: give the figure in %, leave out the unit.

# count of solved cases: 4
• COC(=O)[C@]1(C)CCC[C@@]2(C)[C@@H]3CC[C@@]4(CNCc5cccc6ccccc56)C[C@]3(CC[C@@H]21)C[C@H]4O [Compound 26] = 95.6
• COC(=O)[C@]1(C)CCC[C@@]2(C)[C@@H]3CC[C@@]4(CO)C[C@]3(CC[C@@H]21)C[C@H]4N [Compound 6] = 98.3
• COC(=O)[C@]1(C)CCC[C@@]2(C)[C@@H]3CC[C@@]4(Cn5cc(Cc6ccccc6)nn5)C[C@]3(CC[C@@H]21)CC4=O [Compound 34] = 72.5
• COC(=O)[C@]1(C)CCC[C@@]2(C)[C@@H]3CC[C@@]4(CN[C@@H](C)c5ccc6ccccc6c5)C[C@]3(CC[C@@H]21)C[C@H]4O [Compound 30] = 101

Turning to the following compound.
For the compound shown here, COC(=O)[C@]1(C)CCC[C@@]2(C)[C@@H]3CC[C@@]4(CO)C[C@]3(CC[C@@H]21)C[C@H]4NCc1ccccc1 [Compound 8] , give the reported inhibition at 30 µM. 98.3

###

Tested on: NIH/3T3 fibroblast cells
Assay: MTT assay on non-malignant fibroblasts (selectivity)
Format: cell-based, murine
Conditions: Mus musculus, NIH3T3; NIH/3T3, 30 μM, 72 h; read-out: Growth inhibition (%) ± SEM
Form field: inhibition at 30 µM (one value per entry).
Value expressed in %; do not type the unit.

Solved entries (count: 5):
- COC(=O)[C@]1(C)CCC[C@@]2(C)[C@@H]3CC[C@@]4(Cn5cc(-c6ccccc6)nn5)C[C@]3(CC[C@@H]21)CC4=O [Compound 33]: 78.9
- COC(=O)[C@]1(C)CCC[C@@]2(C)[C@@H]3CC[C@@]4(CNCc5ccc(F)cc5)C[C@]3(CC[C@@H]21)C[C@H]4O [Compound 23]: 93.6
- COC(=O)[C@]1(C)CCC[C@@]2(C)[C@@H]3CC[C@@]4(CO)C[C@]3(CC[C@@H]21)C[C@H]4N[C@H](C)c1ccc2ccccc2c1 [Compound 17]: 96.5
- COC(=O)[C@]1(C)CCC[C@@]2(C)[C@@H]3CC[C@@]4(Cn5cc(-c6ccccc6)nn5)C[C@]3(CC[C@@H]21)C[C@H]4O [Compound 35]: 93
- COC(=O)[C@]1(C)CCC[C@@]2(C)[C@@H]3CC[C@@]4(CO)C[C@]3(CC[C@@H]21)C[C@H]4N[C@H](C)c1cccc2ccccc12 [Compound 13]: 96.9

For COC(=O)[C@]1(C)CCC[C@@]2(C)[C@@H]3CC[C@@]4(CNCc5ccc(OC)cc5)C[C@]3(CC[C@@H]21)C[C@H]4O [Compound 32] , what is its reported inhibition at 30 µM? 96.6

###

Reported melting point is given for each of the following compounds.

Answered examples (4):
• COC(=O)[C@]1(C)CCC[C@@]2(C)[C@@H]3CC[C@@]4(CO)C[C@]3(CC[C@@H]21)C[C@@H]4N [Compound 7] = 127 to 130 °C
• COC(=O)[C@]1(C)CCC[C@@]2(C)[C@@H]3CC[C@@]4(Cn5cc(-c6ccccc6)nn5)C[C@]3(CC[C@@H]21)CC4=O [Compound 33] = 137 to 140 °C
• COC(=O)[C@]1(C)CCC[C@@]2(C)[C@@H]3CC[C@@]4(CN[C@@H](C)c5ccc6ccccc6c5)C[C@]3(CC[C@@H]21)C[C@H]4O [Compound 30] = 102 to 106 °C
• COC(=O)[C@]1(C)CCC[C@@]2(C)[C@@H]3CC[C@@]4(Cn5cc(-c6ccccc6)nn5)C[C@]3(CC[C@@H]21)C[C@H]4O [Compound 35] = 154 to 156 °C

Would you kindly look at the next entry?
Dear colleague, I am looking for the recorded melting point of the following compound: COC(=O)[C@]1(C)CCC[C@@]2(C)[C@@H]3CC[C@@]4(CNCc5ccccc5)C[C@]3(CC[C@@H]21)C[C@H]4O [Compound 22] 98 to 104 °C

###

METRIC NAME: melting point

The cases that follow already have their melting point on record.
- COC(=O)[C@]1(C)CCC[C@@]2(C)[C@@H]3CC[C@@]4(Cn5cc(Cc6ccccc6)nn5)C[C@]3(CC[C@@H]21)C[C@H]4O [Compound 36]: 112 to 114 °C
- COC(=O)C1(C)CCCC2(C)C3CCC4(CN)CC3(CCC12)CC4O (stereo not drawn) [Compound 31]: 64 to 68 °C
- CC[C@H](N[C@@H]1C[C@]23CC[C@H]4[C@@](C)(CCC[C@@]4(C)C(=O)OC)[C@@H]2CC[C@@]1(CO)C3)c1ccccc1 [Compound 11]: 88 to 95 °C
- COC(=O)[C@]1(C)CCC[C@@]2(C)[C@@H]3CC[C@@]4(CO)C[C@]3(CC[C@@H]21)C[C@H]4N [Compound 6]: 166 to 170 °C
- CC[C@@H](N[C@@H]1C[C@]23CC[C@H]4[C@@](C)(CCC[C@@]4(C)C(=O)OC)[C@@H]2CC[C@@]1(CO)C3)c1ccccc1 [Compound 12]: 174 to 176 °C

Now for another entry.
Field request: melting point | item: COC(=O)[C@]1(C)CCC[C@@]2(C)[C@@H]3CC[C@@]4(CO)C[C@]3(CC[C@@H]21)C[C@H]4N[C@@H](C)c1cccc2ccccc12 [Compound 14] 151 to 157 °C

###

System: NIH/3T3 fibroblast cells
Assay: MTT assay on non-malignant fibroblasts (selectivity)
Type: cell-based, murine
Details: Mus musculus, NIH3T3; NIH/3T3, 30 μM, 72 h; read-out: Growth inhibition (%) ± SEM
Property: inhibition at 30 µM; scope: individual compounds
Give just the number in %; leave the unit off.

Field: example entries. Status: answers known.
• COC(=O)[C@]1(C)CCC[C@@]2(C)[C@@H]3CC[C@@]4(CN[C@H](C)c5ccc6ccccc6c5)C[C@]3(CC[C@@H]21)C[C@H]4O [Compound 29] = 32
• CC[C@@H](NC[C@@]12CC[C@@H]3[C@@](CC[C@H]4[C@@]3(C)CCC[C@@]4(C)C(=O)OC)(C[C@H]1O)C2)c1ccccc1 [Compound 24] = 97.7

Which inhibition at 30 µM value is on record for COC(=O)[C@]1(C)CCC[C@@]2(C)[C@@H]3CC[C@@]4(CO)C[C@]3(CC[C@@H]21)C[C@H]4N[C@@H](C)c1cccc2ccccc12 [Compound 14] ? 97.2

###

The entries below are paired with their reported inhibition at 10 µM.
System: NIH/3T3 fibroblast cells
Assay: MTT assay on non-malignant fibroblasts (selectivity)
Assay type: cell-based, murine
Details: Mus musculus, NIH3T3; NIH/3T3, 10 μM, 72 h; read-out: Growth inhibition (%) ± SEM
Use % as the unit, but write only the number.

Below, 2 molecules whose answers are already recorded.
- CC[C@@H](N[C@@H]1C[C@]23CC[C@H]4[C@@](C)(CCC[C@@]4(C)C(=O)OC)[C@@H]2CC[C@@]1(CO)C3)c1ccccc1 [Compound 12]: 29.2
- COC(=O)[C@]1(C)CCC[C@@]2(C)[C@@H]3CC[C@@]4(CNCc5ccc(F)cc5)C[C@]3(CC[C@@H]21)C[C@H]4O [Compound 23]: 81.8

Next:
Form field: reported inhibition at 10 µM of COC(=O)[C@]1(C)CCC[C@@]2(C)[C@@H]3CC[C@@]4(Cn5cc(-c6ccccc6)nn5)C[C@]3(CC[C@@H]21)C[C@H]4O [Compound 35] 54.8

###

Tested on: MCF-7 cells
Assay: MTT antiproliferative assay, MCF-7
Assay type: cell-based
Conditions: Homo sapiens, MCF7; MCF-7, 10 μM, 72 h; read-out: Growth inhibition (%) ± SEM
Recorded measurements of inhibition at 10 µM, one per entry

- COC(=O)[C@]1(C)CCC[C@@]2(C)[C@@H]3CC[C@@]4(CN=[N+]=[N-])C[C@]3(CC[C@@H]21)CC4=O [Compound 19]: < 20%
- COC(=O)[C@]1(C)CCC[C@@]2(C)[C@@H]3CC[C@@]4(Cn5cc(Cc6ccccc6)nn5)C[C@]3(CC[C@@H]21)C[C@H]4O [Compound 36]: 45.9%
- COC(=O)[C@]1(C)CCC[C@@]2(C)[C@@H]3CC[C@@]4(CN[C@@H](C)c5ccc6ccccc6c5)C[C@]3(CC[C@@H]21)C[C@H]4O [Compound 30]: 79.5%
- COC(=O)C1(C)CCCC2(C)C3CCC4(CN)CC3(CCC12)CC4O (centres unmarked) [Compound 31]: 72.7%

We now examine a further compound.
Can you share its inhibition at 10 µM? I mean this compound: COC(=O)[C@]1(C)CCC[C@@]2(C)[C@@H]3CC[C@@]4(CNCc5ccccc5)C[C@]3(CC[C@@H]21)C[C@H]4O [Compound 22] 90.6%
